Entry source: patent US12077503B2

Tested on: pigweed (Amaranthus retroflexus)
Assay: Test A preemergence
Type: in vivo
Settings: Amaranthus retroflexus, pre-emergence, 240 h, 500 g ai/ha, Preemergence, visual injury vs untreated controls after approximately 10 d; read-out: Pigweed plant response rating (0 to 100 scale where 0 is no effect and 100 is complete control)
Kindly state pest or weed control at 500 g/ha for each of the entries shown.
Kindly provide the numeric value in % only, without the unit symbol.

Task item: What does the record list as pest or weed control at 500 g/ha for CCOc1ccc([C@H]2CN(C)C(=O)[C@@H]2C(=O)Nc2cccc(F)c2F)cc1 [Compound 904] ?
Reply: 50

Task item: # pest or weed control at 500 g/ha lookup, item O=C1NC[C@H](c2ccc3c(c2)CCO3)[C@H]1C(=O)Nc1cccc(F)c1F [Compound 785]
Reply: 20

Task item: Which pest or weed control at 500 g/ha reading was recorded for the compound CN1C[C@H](c2cc(F)c(F)c(F)c2)[C@@H](C(=O)Nc2ccccc2S(C)(=O)=O)C1=O [Compound 880] ?
Reply: 90

Task item: Give the measured pest or weed control at 500 g/ha of Cc1cc(C)cc([C@H]2CNC(=O)[C@@H]2C(=O)Nc2ccccc2F)c1 [Compound 888] .
Reply: 0

Task item: Which pest or weed control at 500 g/ha value belongs to O=C1NC[C@H](c2ccc(OC(F)F)cc2)[C@H]1C(=O)Nc1ccccc1F [Compound 778] ?
Reply: 80

Task item: Any idea what pest or weed control at 500 g/ha was measured for COc1c(F)ccc([C@H]2CN(C)C(=O)[C@@H]2C(=O)Nc2ccccc2C(F)(F)F)c1Cl [Compound 896] ?
Reply: 40

Task item: Which value of pest or weed control at 500 g/ha has been reported for CN1C[C@H](c2cccc(C3CC3)c2)[C@@H](C(=O)Nc2cccc(F)c2F)C1=O [Compound 816] in the records?
Reply: 60

----------
Test system: rice (Oryra sativa)
Assay: Test B flooded paddy test
Type: in vivo
Conditions: Oryza sativa, Flood, 250 g ai/ha; scale of 0 to 100 where 0 is no effect and 100 is complete control; read-out: Rice plant response rating
Kindly state pest or weed control at 250 g/ha for each of the entries shown.
Please respond with the number in % and leave the unit unwritten.

Task item: Missing value: pest or weed control at 250 g/ha, rice (Oryra sativa), entry CN1CC[C@H](c2ccc(OC(F)(F)F)cc2)[C@@H](C(=O)Nc2ccccc2C(F)(F)F)C1=O . Fill in?
Reply: 0

Task item: // lookup pest or weed control at 250 g/ha | system=rice (Oryra sativa) | key= CN1CC[C@H](c2cccc(Cl)c2)[C@@H](C(=O)Nc2cccc(Cl)c2F)C1=O
Reply: 0

Task item: Missing value: pest or weed control at 250 g/ha, rice (Oryra sativa), entry CCOc1cccc([C@H]2CN(C)C(=O)[C@@H]2C(=O)Nc2cccc(F)c2F)c1 . Fill in?
Reply: 0

Task item: GET /values?readout=pest or weed control at 250 g/ha&system=rice (Oryra sativa)&item= CN1C[C@H](c2cccc(OC(F)(F)C(F)F)c2)[C@@H](C(=O)Nc2ccccc2S(C)(=O)=O)C1=O
Reply: 40

Task item: // map O=C1NC[C@H](c2cccc3c2OC(F)(F)O3)[C@H]1C(=O)Nc1ccccc1F to recorded pest or weed control at 250 g/ha (system: rice (Oryra sativa))
Reply: 0

Task item: GET /values?readout=pest or weed control at 250 g/ha&system=rice (Oryra sativa)&item= CCc1ccccc1NC(=O)[C@H]1C(=O)N(C)C[C@@H]1c1ccc(C(F)(F)F)cc1
Reply: 0

Task item: Reported pest or weed control at 250 g/ha for rice (Oryra sativa), given Cc1cc(C)cc([C@H]2CNC(=O)[C@@H]2C(=O)Nc2ccccc2F)c1 ?
Reply: 0

Task item: Item: CN1C[C@H](c2cc(F)cc(F)c2)[C@@H](C(=O)Nc2ccc(C(F)(F)F)cn2)C1=O Test system: rice (Oryra sativa) Read-out: pest or weed control at 250 g/ha Value: ?
Reply: 0

Task item: Give recorded pest or weed control at 250 g/ha with rice (Oryra sativa) for the following molecule: Cc1cc([C@H]2CN(C)C(=O)[C@@H]2C(=O)Nc2ccccc2S(C)(=O)=O)ccc1Cl
Reply: 0
